- procedure text: Zeta-potential measurement
- Format: physicochemical
- conditions: category from zeta potential
result type: Zeta category ( +1 = if > 4 mV;-1 = if < -4 mV; 0 = -4mV to 4 mV)

[[record]]
substance = "KIKIQIC [TM112 / CN11]"
result = "1 (+1 = if > 4 mV)"

[[record]]
substance = "CKIKIQINMWQ [MG1]"
result = "1 (+1 = if > 4 mV)"

[[record]]
substance = "MKIKIQINMWQ [TM52]"
result = "1 (+1 = if > 4 mV)"


input: Please report Zeta category ( +1 = if > 4 mV;-1 = if < -4 mV; 0 = -4mV to 4 mV) for the following substance: QCKIKIQINM [CK2]
output: 1 (+1 = if > 4 mV)

input: Please report Zeta category ( +1 = if > 4 mV;-1 = if < -4 mV; 0 = -4mV to 4 mV) for the following substance: QCKFKFQFNM [CK8]
output: 1 (+1 = if > 4 mV)

input: Please report Zeta category ( +1 = if > 4 mV;-1 = if < -4 mV; 0 = -4mV to 4 mV) for the following substance: CKAKAQANM [BL9]
output: -1 (-1 = if < -4 mV)

* * *

- System: HIV-1 infection of TZM-bl cells
- procedure text: HIV-1 infectivity enhancement assay, β-galactosidase luminescence
- Format: cell-based
- conditions: HIV-1 infection of TZM-bl cells, Log10 of infection rate relative to EF-C; Figure 3A source data
Hi, to clarify the labels: TRUE covers Log10 Infection Rel EF-C from -0.7 upward, FALSE covers anything below -0.7.

Some entries whose results are on file:
[[record]]
substance = "KIKIKIKIYYYY"
label = "TRUE"

[[record]]
substance = "KIKIQINM"
label = "TRUE"

[[record]]
substance = "CQFQFQF"
label = "TRUE"

[[record]]
substance = "KIKQIINMWQ"
label = "TRUE"


Switching to the query record.
input: Would you say `KFKFQF` shows Log10 Infection Rel EF-C at minimum -0.7?
output: FALSE

* * *

- procedure text: Turbidity, derived count rate of scattered light
- Type: physicochemical
- conditions: turbidity, Log10 of derived count rate of scattered light; Figure 3A source data
result type: Log10 Count Rate
Please respond with just the number, no unit label.

[[record]]
substance = "CKYKYQY"
result_type = "Log10 Count Rate"
quantitative_readout = 3.026


input: Please report Log10 Count Rate for the following substance: `CKFKFQFNM`
output: 3.347

input: Please report Log10 Count Rate for the following substance: `HRRHFRHKITKKK`
output: 0.9777

input: Please report Log10 Count Rate for the following substance: `KFKFQF`
output: 2.263

input: Please report Log10 Count Rate for the following substance: `QCKFKFQFNM`
output: 3.565

input: Please report Log10 Count Rate for the following substance: `EIEIEIEI`
output: 2.731

input: Please report Log10 Count Rate for the following substance: `KAKQAANMWQ`
output: 2.839

input: Please report Log10 Count Rate for the following substance: `KIKIKIKIWWWW`
output: 4.094

input: Please report Log10 Count Rate for the following substance: `EIKIQINM`
output: 3.45

* * *

Quick reference: Log Count Rate of the listed items.
- procedure text: Turbidity, derived count rate of scattered light
- Assay type: physicochemical
- conditions: Fig S8 panels B, D; log of derived count rate
Please respond with just the number, no unit label.

Would you please look over these solved cases?
[[record]]
substance = "KIKIQIC [TM112 / CN11]"
quantitative_readout = 2.992

[[record]]
substance = "CHLHLQL [CN9]"
quantitative_readout = 3.062


input: Please report Log Count Rate for the following substance: QCKFKQFFNMWQ [CK10]
output: 4.277

input: Please report Log Count Rate for the following substance: HHHHKIKIQINMYYYY [TM16]
output: 3.753

input: Please report Log Count Rate for the following substance: QCKIKIQINMWQ [EF-C opt]
output: 3.918
